This listing pairs molecules with measured IC50.
# Test system: HepG2
# experiment: Cytotoxicity against human HepG2 cells after 48 hrs by MTT assay
# Assay type: functional, cell-based
# test context: HepG2, 48 h
measured endpoint: IC50 (µM)

compound structure string: O=c1c2ccccc2oc2cc(O)cc(O)c12
measured endpoint: IC50
observed: 19.5
--
compound structure string: COc1ccc(CNC2=CC(=O)c3c(O)c4c(c(O)c3C2=O)C[C@](C)(O)[C@H](O)C4)cc1
measured endpoint: IC50
observed: 10.1
--
compound structure string: COc1cc(O)c2c(c1O)C(=O)C1=C(C[C@@H](O)[C@@](C)(O)C1)C2=O
measured endpoint: IC50
observed: 9.99
--
compound structure string: O=C(NCCN1CCOCC1)c1cc(O)c2c(c1)C(=O)c1cc(O)cc(O)c1C2=O
measured endpoint: IC50
observed: 20
--
compound structure string: Cc1cc(O)c2c(c1)C(=O)c1cc(O)c(CN3CCOCC3)c(O)c1C2=O
measured endpoint: IC50
observed: 17.9
--
compound structure string: O=C1c2cccc(O)c2C(=O)c2c(O)cc(Cn3ccc(=O)[nH]c3=O)cc21
measured endpoint: IC50
observed: 3.9
--
compound structure string: C[C@]1(O)Cc2c(O)c3c(c(O)c2C[C@H]1O)C(=O)C=C(NCc1ccccc1)C3=O
measured endpoint: IC50
observed: 13.4
